System: Cephalothinresistant E. coli (3 strains) and Kl. pneumoniae (2 strains)
Test: MIC, two-fold serial agar dilution, group (G-)-Ib
Format: cell-based
Conditions: Escherichia coli, read-out: Geometric Mean of MIC, (G-)-Ib, Mueller-Hinton agar; 5 strains
test readout: MIC (µg/mL)

[[record]]
molecule = "CON=C(C(=O)NC1C(=O)N2C(C(=O)[O-])=C(/C=C/C[n+]3ccccc3)CSC12)c1nsc(N)n1 (stereo not shown)"
measured = 0.044

[[record]]
molecule = "CCON=C(C(=O)NC1C(=O)N2C(C(=O)[O-])=C(/C=C/C[n+]3ccc(C(N)=O)cc3)CSC12)c1nsc(N)n1 (stereo not shown)"
measured = 0.057

[[record]]
molecule = "CON=C(C(=O)NC1C(=O)N2C(C(=O)[O-])=C(C=CC[n+]3ccc4sc(N)nc4c3)CS[C@H]12)c1nsc(N)n1 (stereo partly shown)"
measured = 0.033

[[record]]
molecule = "CNC(=O)c1cc[n+](C/C=C/C2=C(C(=O)[O-])N3C(=O)C(NC(=O)/C(=N\\OC)c4nsc(N)n4)C3SC2)cc1 (stereo not shown)"
measured = 0.1

[[record]]
molecule = "CON=C(C(=O)NC1C(=O)N2C(C(=O)[O-])=C(/C=C/C[n+]3cccc(CN)c3)CSC12)c1nsc(N)n1 (stereo not shown)"
measured = 0.2

[[record]]
molecule = "CON=C(C(=O)NC1C(=O)N2C(C(=O)[O-])=C(C=CC[n+]3ccccc3)CSC12)c1nsc(N)n1 (stereo not shown)"
measured = 0.11

[[record]]
molecule = "CON=C(C(=O)NC1C(=O)N2C(C(=O)[O-])=C(/C=C/C[n+]3cccc(CC(=O)O)c3)CSC12)c1nsc(N)n1 (stereo not shown)"
measured = 0.087


----------
Tested on: Cephalothinsensitive E. coli (2 strains), Kl. pneumoniae (1 strain) and Pr. mirabilis (2 strains)
Experiment: MIC, two-fold serial agar dilution, group (G-)-Ia
Assay type: cell-based
Details: Mueller-Hinton agar; 5 strains; read-out: Geometric Mean of MIC, (G-)-Ia
test readout: MIC (µg/mL)

[[record]]
compound = "CON=C(C(=O)NC1C(=O)N2C(C(=O)[O-])=C(/C=C/C[n+]3cccc(CC(=O)O)c3)CSC12)c1nsc(N)n1 (centres unmarked)"
measured = 0.013

[[record]]
compound = "CO/N=C(\\C(=O)NC1C(=O)N2C(C(=O)[O-])=C(/C=C/C[n+]3cccc4c3CCC4)CSC12)c1nsc(N)n1 (centres unmarked)"
measured = 0.029

[[record]]
compound = "CCO/N=C(\\C(=O)NC1C(=O)N2C(C(=O)[O-])=C(/C=C\\C[n+]3ccc(C(=O)O)cc3)CSC12)c1nsc(N)n1 (centres unmarked)"
measured = 0.044

[[record]]
compound = "CNC(=O)c1cc[n+](C/C=C/C2=C(C(=O)[O-])N3C(=O)C(NC(=O)/C(=N\\OC)c4nsc(N)n4)C3SC2)cc1 (centres unmarked)"
measured = 0.029

[[record]]
compound = "CCO/N=C(\\C(=O)NC1C(=O)N2C(C(=O)[O-])=C(/C=C/C[n+]3ccc(C(=O)O)cc3)CSC12)c1nsc(N)n1 (centres unmarked)"
measured = 0.016

[[record]]
compound = "CON=C(C(=O)NC1C(=O)N2C(C(=O)[O-])=C(C=CC[n+]3ccc(C(=O)O)cc3)CSC12)c1nsc(N)n1 (centres unmarked)"
measured = 0.013

[[record]]
compound = "CON=C(C(=O)NC1C(=O)N2C(C(=O)[O-])=C(C=CC[N+](C)(C)C)CS[C@H]12)c1nsc(N)n1 (some centres unmarked)"
measured = 0.1

[[record]]
compound = "CON=C(C(=O)NC1C(=O)N2C(C(=O)[O-])=C(C=CC[N+]3(C)CCCC3)CSC12)c1nsc(N)n1 (centres unmarked)"
measured = 0.05

[[record]]
compound = "CON=C(C(=O)NC1C(=O)N2C(C(=O)[O-])=C(/C=C/C[n+]3ccsc3C)CSC12)c1nsc(N)n1 (centres unmarked)"
measured = 0.025

[[record]]
compound = "CCON=C(C(=O)NC1C(=O)N2C(C(=O)[O-])=C(/C=C/C[n+]3ccc(C(N)=O)cc3)CSC12)c1nsc(N)n1 (centres unmarked)"
measured = 0.014

[[record]]
compound = "CON=C(C(=O)NC1C(=O)N2C(C(=O)[O-])=C(/C=C/C[n+]3cccc(C(N)=O)c3)CSC12)c1nsc(N)n1 (centres unmarked)"
measured = 0.0094


----------
As shown below, each of these compounds has a reported ED50 value.
System: E. coli Juhl
Experiment: Protective Dose50 in mice, E. coli Juhl
Format: in vivo
Settings: Escherichia coli, read-out: PD50, E. coli Juhl
test readout: ED50

[[record]]
compound = "CON=C(C(=O)NC1C(=O)N2C(C(=O)[O-])=C(/C=C/C[n+]3ccsc3C)CSC12)c1nsc(N)n1 (centres unmarked) [Compound I-1J]"
test_readout = "ED50"
measured = "0.029 mg/kg"

[[record]]
compound = "CON=C(C(=O)NC1C(=O)N2C(C(=O)[O-])=C(/C=C/C[n+]3cccc(C(N)=O)c3)CSC12)c1nsc(N)n1 (centres unmarked) [Compound I-1G]"
test_readout = "ED50"
measured = "0.021 mg/kg"

[[record]]
compound = "CON=C(C(=O)NC1C(=O)N2C(C(=O)[O-])=C(/C=C/C[n+]3ccc(C(N)=O)cc3)CSC12)c1nsc(N)n1 (centres unmarked) [Compound I-1H]"
test_readout = "ED50"
measured = "0.015 mg/kg"

[[record]]
compound = "CON=C(C(=O)NC1C(=O)N2C(C(=O)[O-])=C(C=CC[n+]3ccc4sc(N)nc4c3)CS[C@H]12)c1nsc(N)n1 (some centres unmarked) [Compound I-1C]"
test_readout = "ED50"
measured = "0.013 mg/kg"

[[record]]
compound = "CO/N=C(\\C(=O)NC1C(=O)N2C(C(=O)[O-])=C(/C=C/C[n+]3cccc4c3CCC4)CSC12)c1nsc(N)n1 (centres unmarked) [Compound I-1O]"
test_readout = "ED50"
measured = "0.17 mg/kg"


----------
Quick reference: half-life of the listed items.
Assay: blood levels upon intramuscular administration to mice
Format: in vivo
Conditions: mouse, im, 20 mg/kg
test readout: half-life (min)

[[record]]
compound = "CON=C(C(=O)NC1C(=O)N2C(C(=O)[O-])=C(C=CC[n+]3ccc4sc(N)nc4c3)CS[C@H]12)c1nsc(N)n1 (stereo partly shown) [Compound I-1C]"
measured = 32

[[record]]
compound = "CON=C(C(=O)NC1C(=O)N2C(C(=O)[O-])=C(/C=C/C[n+]3ccsc3C)CSC12)c1nsc(N)n1 (stereo not shown) [Compound I-1J]"
measured = 16

[[record]]
compound = "CON=C(C(=O)NC1C(=O)N2C(C(=O)[O-])=C(/C=C/C[n+]3ccc(C(N)=O)cc3)CSC12)c1nsc(N)n1 (stereo not shown) [Compound I-1H]"
measured = 16

[[record]]
compound = "C=CCON=C(C(=O)NC1C(=O)N2C(C(=O)[O-])=C(/C=C/C[n+]3ccc(C(N)=O)cc3)CSC12)c1nsc(N)n1 (stereo not shown) [Compound I-3H]"
measured = 47

[[record]]
compound = "CON=C(C(=O)NC1C(=O)N2C(C(=O)[O-])=C(/C=C/C[n+]3cccc(CO)c3)CSC12)c1nsc(N)n1 (stereo not shown) [Compound I-1K]"
measured = 14

[[record]]
compound = "CON=C(C(=O)NC1C(=O)N2C(C(=O)[O-])=C(C=CC[n+]3ccccc3)CSC12)c1nsc(N)n1 (stereo not shown) [Compound I-1B]"
measured = 21

[[record]]
compound = "CON=C(C(=O)NC1C(=O)N2C(C(=O)[O-])=C(C=CC[N+](C)(C)C)CS[C@H]12)c1nsc(N)n1 (stereo partly shown) [Compound I-1D]"
measured = 19

[[record]]
compound = "C#CCON=C(C(=O)NC1C(=O)N2C(C(=O)[O-])=C(/C=C/C[n+]3ccc(C(N)=O)cc3)CSC12)c1nsc(N)n1 (stereo not shown) [Compound I-4H]"
measured = 22

[[record]]
compound = "CO/N=C(\\C(=O)NC1C(=O)N2C(C(=O)[O-])=C(/C=C/C[n+]3cccc4c3CCC4)CSC12)c1nsc(N)n1 (stereo not shown) [Compound I-1O]"
measured = 32

[[record]]
compound = "CCO/N=C(\\C(=O)NC1C(=O)N2C(C(=O)[O-])=C(C=CC[n+]3ccc(C(=O)O)cc3)CSC12)c1nsc(N)n1 (stereo not shown) [Compound I-2N]"
measured = 20

[[record]]
compound = "CON=C(C(=O)NC1C(=O)N2C(C(=O)[O-])=C(C=CC[n+]3ccc(C(=O)O)cc3)CSC12)c1nsc(N)n1 (stereo not shown) [Compound I-1N]"
measured = 19

[[record]]
compound = "CNC(=O)c1cc[n+](C/C=C/C2=C(C(=O)[O-])N3C(=O)C(NC(=O)/C(=N\\OC)c4nsc(N)n4)C3SC2)cc1 (stereo not shown) [Compound I-1M]"
measured = 23

[[record]]
compound = "NC(=O)c1cc[n+](C/C=C/C2=C(C(=O)[O-])N3C(=O)C(NC(=O)C(=NOC4CCCC4)c4nsc(N)n4)C3SC2)cc1 (stereo not shown) [Compound I-5H]"
measured = 32


Origin of measurements: patent US4751295A
